# assay.system: Recombinant human COX-1 (Homo sapiens, UniProt P23219)
# Sequence (P23219 24-599): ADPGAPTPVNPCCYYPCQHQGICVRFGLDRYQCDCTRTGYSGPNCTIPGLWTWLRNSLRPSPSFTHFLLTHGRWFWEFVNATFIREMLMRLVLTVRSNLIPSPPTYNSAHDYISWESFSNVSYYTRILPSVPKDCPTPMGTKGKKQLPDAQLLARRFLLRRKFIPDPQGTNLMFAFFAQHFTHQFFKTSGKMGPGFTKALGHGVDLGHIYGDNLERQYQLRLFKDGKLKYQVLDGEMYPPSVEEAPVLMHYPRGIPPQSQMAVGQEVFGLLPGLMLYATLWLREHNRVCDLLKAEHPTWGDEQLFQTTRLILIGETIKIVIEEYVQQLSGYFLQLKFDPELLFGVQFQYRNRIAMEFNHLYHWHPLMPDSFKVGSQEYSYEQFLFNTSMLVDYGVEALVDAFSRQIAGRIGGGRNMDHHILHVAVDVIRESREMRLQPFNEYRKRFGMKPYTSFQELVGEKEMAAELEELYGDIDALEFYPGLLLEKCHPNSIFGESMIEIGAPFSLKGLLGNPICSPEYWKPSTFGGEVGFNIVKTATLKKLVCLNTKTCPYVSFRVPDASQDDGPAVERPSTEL
# test.name: Recombinant human COX-1 enzyme assay (PGE2 by EIA)
# Description: Recombinant human enzymes were reconstituted in buffer (100 mM Tris, pH 7.8 at 37° C.) containing 0.5 mM phenol (964 μl total volume). […] The reaction was incubated for 35 s (maximum level of COX-2 accumulation as determined from time course studies), and terminated by addition of 50-60 μl of SnCl2 (1 mg/ml) in 0.1 N HCl. PGE2 production in the presence or absence of the drug was determined by Enzyme Immunoassay (EIA) analysis as described. […]
outcome.measure: IC50 (µM)
Respond numerically; units are µM and should not be typed.

{"columns": ["structure.smiles", "assay.system", "IC50 (µM)"],
 "data": [
  ["CCO[Si](CCCNC(=O)Cc1c(C)n(C(=O)c2ccc(Cl)cc2)c2ccc(OC)cc12)(OCC)OCC", "Recombinant human COX-1 (Homo sapiens, UniProt P23219)", 5]
]}

Task: Dear colleague, I am looking for the recorded IC50 of the following compound: "COc1ccc2c(c1)c(CC(=O)NC[Si](C)(C)C)c(C)n2C(=O)c1ccc(Cl)cc1"
Result: 2.7

----------
# Test system: human MiaPaCa-2 pancreatic cancer cells
# test.name: In vitro cellular proliferation assay (SRB)
# Assay type: cell-based
# condition: MIA PaCa-2, 72 h, 3 days incubation, starting concentration 100 μM, read-out: IC50 (growth inhibition, MiaPaCa-2)
outcome.measure: IC50 (µM)
Please respond with the number in µM and leave the unit unwritten.

{"columns": ["structure.smiles", "quantitative.result"],
 "data": [
  ["COc1ccc2c(c1)c(CC(=O)NC[Si](C)(C)c1ccccc1)c(C)n2C(=O)c1ccc(Cl)cc1", 4.8]
]}

Task: Give the measured IC50 of "CCO[Si](CCCNC(=O)Cc1c(C)n(C(=O)c2ccc(Cl)cc2)c2ccc(OC)cc12)(OCC)OCC" .
Result: 20

Task: Param item: "COc1ccc2c(c1)c(CC(=O)NCCC[Si](C)(C)C)c(C)n2C(=O)c1ccc(Cl)cc1"
Result: 6.6

Task: And what about the compound "COc1ccc2c(c1)c(CC(=O)NC[Si](C)(C)C)c(C)n2C(=O)c1ccc(Cl)cc1" ?
Result: 14.3
